Test system: Mus musculus
measurement_protocol: Neurotoxicity in Swiss albino mouse at 300 mg/kg, ip after 4 hrs
Format: toxicity, organism-based
Parameters: dose 300 mg/kg, route intraperitoneal
condition_description: in vivo
attribute_measured: Activity

1) O=C(N/N=C(/c1ccccc1)c1ccc([N+](=O)[O-])cc1)Nc1nnc(COc2ccc3ccccc3c2)o1 = Non-toxic
2) O=C(NN=C(c1ccccc1)c1ccccc1)Nc1nnc(COc2ccc3ccccc3c2)o1 = Non-toxic
3) O=C(N/N=C(/c1ccccc1)c1ccc(O)cc1)Nc1nnc(COc2ccc3ccccc3c2)o1 = Non-toxic

====

System: Mus musculus
measurement_protocol: Neurotoxicity in Swiss albino mouse at 300 mg/kg, ip after 4 hrs
Type: toxicity, organism-based
Design: dose 300 mg/kg, route intraperitoneal
condition_description: in vivo
attribute_measured: Activity

1) CCCC(CCC)C(=O)[O-].[Na+] [VALPROATE SODIUM] = Non-toxic
2) C/C(=N/NC(=O)Nc1nnc(COc2ccc3ccccc3c2)o1)c1ccc(Cl)cc1 = Non-toxic
3) O=C(N/N=C\c1ccc(Cl)cc1)Nc1nnc(COc2ccc3ccccc3c2)o1 = Non-toxic
4) COc1ccc(/C=N\NC(=O)Nc2nnc(COc3ccc4ccccc4c3)o2)cc1 = Non-toxic
5) C/C(=N/NC(=O)Nc1nnc(COc2ccc3ccccc3c2)o1)c1ccc(C)cc1 = Non-toxic
6) C/C(=N/NC(=O)Nc1nnc(COc2ccc3ccccc3c2)o1)c1ccc([N+](=O)[O-])cc1 = Non-toxic
7) COc1cc(/C=N\NC(=O)Nc2nnc(COc3ccc4ccccc4c3)o2)ccc1O = Non-toxic
8) CCC1(C)CC(=O)NC1=O (stereo not given) [ETHOSUXIMIDE] = Non-toxic
9) Cc1ccc(/C=N\NC(=O)Nc2nnc(COc3ccc4ccccc4c3)o2)cc1 = Non-toxic
10) C/C(=N/NC(=O)Nc1nnc(COc2ccc3ccccc3c2)o1)c1ccc(N)cc1 = Non-toxic
